Target: β-adrenergic receptors (guinea pig right atria and guinea pig tracheal strips)
Assay: Beta-blocking activity in vitro: guinea pig right atria and tracheal strips, shift of isoproterenol concentration-response curves (pA2)
Details: β-blockade of isoproterenol response, 60-minute incubation, 37 °C; pA2 (-log KB) by method of Furchgott; tissue (atria or trachea) not stated in Table 1
# pA2 per entry
Write no unit; give the number alone.

// worked examples, pA2 included
molecule	pA2
CC(C)C(=O)NCC(C)(C)NCC(O)COC(=O)C1=CCCC1 (stereo not shown)	7.6
CC(C)(CNC(=O)N1CCCCC1)NCC(O)COC(=O)C1CC1 (stereo not shown)	8.1
CC(C)(C)NCC(O)COC(=O)C1CCC1 (stereo not shown)	5.0
CC(C)C(=O)NCC(C)(C)NCC(O)COC(=O)C(C)(C)C (stereo not shown)	6.5
CC(C)(CNC(=O)N1CCOCC1)NCC(O)COC(=O)C1CC1 (stereo not shown)	8.0

stdin: Please tell me: pA2 of CC(C)C(=O)NCC(C)(C)NCC(O)COC(=O)C1CCC1 (stereo not shown) , system β-adrenergic receptors (guinea pig right atria and guinea pig tracheal strips)?
stdout: 6.5

stdin: Similarly, CC(C)(C)NCC(O)COC(=O)C1CC1 (stereo not shown) ?
stdout: 6.5

----------
Target: β-adrenergic receptors (guinea pig right atria and guinea pig tracheal strips)
Assay: Beta-blocking activity in vitro: guinea pig right atria and tracheal strips, shift of isoproterenol concentration-response curves (pA2)
Conditions: β-blockade of isoproterenol response, 60-minute incubation, 37 °C; pA2 (-log KB) by method of Furchgott; tissue (atria or trachea) not stated in Table 1
propertyLabel: pA2
Write no unit; give the number alone.

// worked examples, pA2 included
compound	pA2
CC(C)(CNC(=O)C1CCOC1)NCC(O)COC(=O)/C=C/c1ccccc1 (stereo not drawn)	7.3
CC(C)(C)NCC(O)COC(=O)C(C)(C)C (stereo not drawn)	5.3

Now look at this entry.
stdin: I am curious: what pA2 value has been reported for CC(C)C(=O)NCC(C)(C)NCC(O)COC(=O)C1CC=CCC1 (stereo not drawn) ?
stdout: 6.9
